Just for reference, ChEMBL document CHEMBL1201862 is where these values come from.

# System: HOP-62
# experimental-protocol: NCI tumour cell line growth inhibition, 48 h
Calls of active or inactive are those of the source. No stated cut-off is given here; in the data, active = GI50 up to about 1.1 µM and inactive = higher.
Entries and their GI50 values follow.

# molecule, target-under-test, GI50
rows = [
    ("O=c1cnn(C2OC(C(O)CO)C(O)C2O)c(=O)[nH]1 (stereo unspecified)", "HOP-62", "> 100 µM (inactive)"),
    ("COc1ccc2c(c1)C1=NCCN(CCN(C)C)c3ccc([N+](=O)[O-])c(c31)N2", "HOP-62", "1.21 µM (inactive)"),
    ("COC(=O)Nc1nc2cc(C(=O)c3ccc[nH]3)ccc2[nH]1", "HOP-62", "1.44 µM (inactive)"),
    ("COc1cc(/C=C/C(=O)CC(=O)/C=C/c2cc(C)c(O)c(OC)c2)cc(C)c1O", "HOP-62", "> 100 µM (inactive)"),
    ("COc1cc2c3c(c1OCc1ccccc1)NCCC3NCC2 (stereo unspecified)", "HOP-62", "> 100 µM (inactive)"),
    ("O=C(c1cccc2ccccc12)C1(Br)S(=O)(=O)OCCOS1(=O)=O", "HOP-62", "> 100 µM (inactive)"),
]

Output measured GI50 for this item: NC(=O)C(=Cc1ccc(CP(=O)(O)O)cc1)C(N)=O
> 100 µM (inactive)

Answer with reported GI50 of Cc1c(/C=N/NC(=O)c2cc(Br)cc(Br)c2O)c(=O)n(-c2ccccc2)n1C
52.7 µM (inactive)

Please list GI50 recorded for the molecule O=C(c1cc(Cl)ccc1Cl)N1CCN(c2ccc(Cl)c(Cl)c2)CC1
67.5 µM (inactive)

Let me know recorded GI50 for COc1ccc(Cc2ccccc2C(=O)O)c2ccccc12 , thanks.
36.6 µM (inactive)

Report GI50, nothing else, for this molecule: CSc1cc(Cl)c(C)cc1S(=O)(=O)NC(=O)NNc1ccc(C)cc1
> 100 µM (inactive)

====

# Tested on: A498
# experimental-protocol: NCI tumour cell line growth inhibition, 48 h
The source made the active and inactive calls. Cut-off read from the data, not from the text of the source: active = GI50 up to about 1.1 µM and inactive = higher.
Outcome field: choose from label 1 (active), label 0 (inactive)

# compound, assigned-category
data = [
    ("CN1CCN(C)C12C=CC=CC21CC1", "label 0"),
    ("COC(=O)C(Cc1cn(C(C)=O)c2ccccc12)P(=O)(OC)OC (stereo unspecified)", "label 0"),
    ("Cc1ccc2c(c1)[nH]c(=S)n2C=C1C(=O)CC(C)(C)CC1=O", "label 0"),
    ("Nc1nc(O)c2c(n1)NCN(CCCN1CCOCC1)C2", "label 0"),
    ("O=C1c2cccc3cc([N+](=O)[O-])cc(c23)C(=O)N1CCCN1CCN(CCCN2C(=O)c3cccc4cc([N+](=O)[O-])cc(c34)C2=O)CC1", "label 1"),
    ("COC(=O)/C=C/c1ccc2nncnc2c1.COC(=O)/C=C\\c1ccc2nncnc2c1", "label 0"),
    ("NCCN1C(=O)CN=C(c2ccc(Cl)cc2)c2cc(Cl)ccc21", "label 0"),
    ("Cc1ccc([N+](=O)[O-])c2c(NCCNC(=O)Cn3ccnc3[N+](=O)[O-])ccnc12", "label 0"),
]

What classification did CSc1cc(Cl)c(C)cc1S(=O)(=O)NC(=O)NNc1ccc(C)cc1 end up with in this test?
label 0

Please let me know the test result on file for CCOP(=O)(OCC)/C(C#N)=C\c1ccc(OC(C)=O)cc1 .
label 0

Called result for O=C(CC1C(=O)Nc2ccccc2S1(=O)=O)Nc1cccc(Cl)c1 (stereo unspecified)
label 0

How did this test come out for O=c1c2ncn(C3CC(O)C(CO)O3)c2nnn1Cc1ccccc1[N+](=O)[O-] (stereo unspecified) ?
label 0

What outcome does the record of this test show for NC(CCc1ncc(-c2ccccc2)s1)C(=O)O (stereo unspecified) ?
label 0

Tell me the recorded outcome of this test for O=C1CN(C(=O)C2CCCN2C(=O)C2CCCN2)C(=O)CN1 (stereo unspecified) .
label 0

Check the results log: what was the call for CC1CN=C(N(C)C(=O)Nc2ccc(Cl)c(Cl)c2)S1 (stereo unspecified) ?
label 0

// return assay outcome for CSc1ncnc2c1ncn2C1OC(CO)C(O)OC1O (stereo unspecified)
label 1

GET /call?item= CCOC(=O)C(CO)c1nc2c([nH]c1=O)c(=O)n(C)c(=O)n2C (stereo unspecified) returns the recorded outcome of this test.
label 1

So what was the verdict on Clc1ccc(Nc2nn3c(CCCCCCCCc4nnc5sc(Nc6ccc(Cl)cc6)nn45)nnc3s2)cc1 in this test?
label 0

Query: recorded result category for NC(CCC(=O)NC(CSC(=O)N(O)c1ccccc1)C(=O)NCC(=O)O)C(=O)O (stereo unspecified) in this test
label 0

How was CC(=O)OC1CCN(C(=O)c2ccccc2)CC1CC1(c2cc3ccccc3[nH]2)OCCO1 (stereo unspecified) classified in this test?
label 0

Hi, sorry to bother you, what did the test record for CC1OC(OC2CCCc3c(O)c4c(c(O)c32)C(=O)c2ccccc2C4=O)CC(N)C1O (stereo unspecified) ?
label 0

====

# System: UO-31
# experimental-protocol: NCI tumour cell line growth inhibition, 48 h
Active and inactive are the calls of the source. Cut-off read from the data, not from the text of the source: active = GI50 up to about 1.1 µM and inactive = higher.
Below: a set of entries, each annotated with reported GI50.

# example entries with known answers
# molecule, GI50
records = [
    ("COc1ccc(CNc2cnc3cc(N)ccc3n2)cc1OC", "> 100 µM (inactive)"),
    ("O=C1CCC(=O)C12CCc1cccc(O)c12", "> 100 µM (inactive)"),
    ("c1ccc(CSc2nnc3c4ccccc4c4ccccc4c3n2)cc1", "> 57.7 µM (inactive)"),
    ("Cc1cc(=O)oc2cc(OCC(O)COC(C)C)ccc12 (stereo unspecified)", "> 100 µM (inactive)"),
]

Look up UO-31 data: GI50 of CC1(C)CC(=O)C2=C(C1)OC1=C(C(=O)CC(C)(C)C1)C2CC(c1ccccc1)c1ccc(O)c(O)c1O (stereo unspecified) , then report it.
> 10 µM (inactive)

State GI50 on UO-31. Entry: C[C@]12CC[C@H](O)CC1=CC[C@@H]1C2CC[C@]2(C)C(=O)N(N)C(=O)CC12 (stereo partly specified)
> 100 µM (inactive)

Provide GI50, recorded with UO-31, of COc1cc2c(SCCN(C)C)nc3ccccc3c2c2ccccc12
2.26 µM (inactive)

Answer with GI50 of C#CCSc1nc(N)c2ncn(C3OC(COP(=O)(O)O)C(O)C3O)c2n1 (stereo unspecified) measured for UO-31.
> 239 µM (inactive)

Please report GI50 with UO-31 for item CC(N)C(=O)c1ccc(O)cc1 (stereo unspecified) .
> 100 µM (inactive)

Jot down GI50 (UO-31) of CC12OC(=O)C(C#N)C1(C)C1C(=O)CCCC12 (stereo unspecified) .
> 100 µM (inactive)

Enter measured GI50, system UO-31, for the molecule shown: O=S1(=O)CS(=O)(=O)OCCCCCO1
> 100 µM (inactive)

====

# Test system: NCI/ADR-RES
# experimental-protocol: NCI tumour cell line growth inhibition, 48 h
Calls of active or inactive are those of the source. Rule as the data show it: active = GI50 up to about 1.1 µM and inactive = higher.
measurement-label: GI50

Previously resolved entries follow.
# molecule, target-under-test, measurement-label, observed-value
measured = [
    ("CCOC(=O)c1cccc([N+](=O)[O-])c1N", "NCI/ADR-RES", "GI50", "> 100 µM (inactive)"),
    ("CCOC(=O)C(CO)c1nc2c([nH]c1=O)c(=O)n(C)c(=O)n2C (stereo not given)", "NCI/ADR-RES", "GI50", "> 100 µM (inactive)"),
    ("CC(C)(C)OC(=O)NC(Cc1ccc(OC(C)(C)C)cc1)C(=O)N[C@H]1CC[C@H](C(=O)O)C1 (stereo not given in full)", "NCI/ADR-RES", "GI50", "> 100 µM (inactive)"),
    ("O=C1C=CC(=O)c2c1cc([N+](=O)[O-])c1ccoc21", "NCI/ADR-RES", "GI50", "22.6 µM (inactive)"),
]

Please examine the following record next.
State its GI50: SC1=NC2=C(CSC/C2=C\c2cccc(Br)c2)C(c2cccc(Br)c2)N1 (stereo not given)
61.9 µM (inactive)

====

# Test system: LXFL 529
# experimental-protocol: NCI tumour cell line growth inhibition, 48 h
Calls of active or inactive are those of the source. No stated cut-off is given here; in the data, active = GI50 up to about 1.1 µM and inactive = higher.
measurement-label: GI50

# compound, GI50
measured = [
    ("CC(C)N(C(=O)C12C3C4C1C1C4(C#N)C3C12C(=O)O)C(C)C (stereo unspecified)", "> 100 µM (inactive)"),
    ("C[N+](C)(C)CC1CCCC1=O (stereo unspecified)", "1.26 µM (inactive)"),
    ("CCC1NCC(=O)c2c1[nH]c1ccccc21 (stereo unspecified)", "> 100 µM (inactive)"),
    ("O=C1CC2(C[C@@H]3CCCCCCCCC[C@@H](C3)C2)N1 (stereo partly specified)", "15.7 µM (inactive)"),
    ("C=C(CN(C)C)C(=O)c1ccc(C)cc1C", "12.5 µM (inactive)"),
]

# next compound below
Please look at this compound and report its GI50: CC(=O)Nc1ccc(C(=O)NN2C(=O)C(Cl)C2c2ccc([N+](=O)[O-])cc2)cc1 (stereo unspecified)
> 100 µM (inactive)
